- tgt: histone deacetylase, subtype 1 (HDAC1) (Homo sapiens, UniProt Q13547)
- Construct: Flag
- Sequence (Q13547 whole entry): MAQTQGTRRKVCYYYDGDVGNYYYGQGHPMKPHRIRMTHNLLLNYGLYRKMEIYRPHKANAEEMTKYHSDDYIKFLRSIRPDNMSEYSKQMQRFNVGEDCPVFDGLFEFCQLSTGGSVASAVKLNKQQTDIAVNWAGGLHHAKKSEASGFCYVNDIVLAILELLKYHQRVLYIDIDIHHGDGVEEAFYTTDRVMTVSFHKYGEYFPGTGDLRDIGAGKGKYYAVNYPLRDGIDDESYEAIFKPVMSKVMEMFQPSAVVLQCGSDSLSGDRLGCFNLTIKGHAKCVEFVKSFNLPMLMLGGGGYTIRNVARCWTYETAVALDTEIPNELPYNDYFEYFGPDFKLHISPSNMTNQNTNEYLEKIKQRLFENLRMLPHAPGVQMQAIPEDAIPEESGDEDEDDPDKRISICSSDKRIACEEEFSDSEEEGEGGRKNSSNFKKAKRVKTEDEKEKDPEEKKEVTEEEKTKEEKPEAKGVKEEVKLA
- assay.procedure: HDAC1-Flag assay (in vitro deacetylation assay)
- experimental.context: epitope-tagged human HDAC1 complex; substrate at Km; fluorogenic acetylated lysine substrate; read-out: HDAC1 IC50 Ave
endpoint: IC50 (nM)
Answers are plain numbers, in nM.

| molecule.smiles | endpoint | reported.result |
| --- | --- | --- |
| O=C(CCCCCCC(=O)Nc1ccccc1)NOC(=O)c1cccnc1 | IC50 | 582 |

For every item in the list below, what is its measured IC50?
1. O=C(CCCCCCC(=O)Nc1ccccc1)NOC(=O)CCc1ccccc1
2. O=C(CCCCCCC(=O)Nc1ccccc1)NOC(=O)CCCCCCC(=O)Nc1ccccc1

1. 1680
2. 51900

---

- tgt: histone deacetylase, subtype 1 (HDAC1) (Homo sapiens)
- Construct: Flag; made in house
- assay.procedure: HDAC1-Flag assay (in vitro deacetylation assay)
- Format: biochemical
- experimental.context: 10 μM compound; read-out: HDAC1 % INH 10 μM
Binning scheme for inhibition at 10 µM: bottom bin (below 20%), middle bin (20% to below 40%), top bin (40% or more)

| molecule.smiles | tgt | class.label |
| --- | --- | --- |
| CC(C)(C)OC(=O)N[C@@H](Cc1ccccc1)C(=O)ONC(=O)CCCCCCC(=O)Nc1ccccc1 | histone deacetylase, subtype 1 (HDAC1) (Homo sapiens) | top bin |

Classify this compound: COc1ccccc1C(=O)ONC(=O)CCCCCCC(=O)Nc1ccccc1
middle bin

Classify this compound: CC(=O)ONC(=O)CCCCCCC(=O)Nc1ccccc1
bottom bin

Classify this compound: O=C(CCCCCCC(=O)Nc1ccccc1)NOC(=O)c1ccc2ccccc2c1
bottom bin

Classify this compound: O=C(CCCCCCC(=O)Nc1ccccc1)NOC(=O)c1ccc(Cl)cc1
middle bin

Classify this compound: O=C(CCCCCCC(=O)Nc1ccccc1)NOC(=O)CCCc1ccccc1
middle bin

Classify this compound: O=C(CCCCCCC(=O)Nc1ccccc1)NOC(=O)[C@H](Cc1ccccc1)NC(=O)OCc1ccccc1
top bin

Classify this compound: COc1ccc(C(=O)ONC(=O)CCCCCCC(=O)Nc2ccccc2)cc1
middle bin

Classify this compound: O=C(CCCCCCC(=O)Nc1ccccc1)NOC(=O)c1ccc(-c2ccccc2)cc1
top bin

Classify this compound: CCCCc1ccc(C(=O)ONC(=O)CCCCCCC(=O)Nc2ccccc2)cc1
bottom bin

Classify this compound: O=C(CCCCCCC(=O)Nc1ccccc1)NOC(=O)CCCCCCC(=O)Nc1ccccc1
top bin

---

- tgt: histone deacetylase, subtype 1 (HDAC1) (Homo sapiens, UniProt Q13547)
- Construct: Flag; made in house
- assay.procedure: HDAC1-Flag assay (in vitro deacetylation assay)
- Assay type: biochemical
- experimental.context: 100 μM compound; read-out: HDAC1 % INH 100 μM
Would you mind telling me the reported inhibition at 100 µM of each entry?
One number for each entry, in %.

// below: answered molecules
| molecule.smiles | tgt | units.label | reported.result |
| --- | --- | --- | --- |
| O=C(CCCCCCC(=O)Nc1ccccc1)NOC(=O)c1cccc2ccccc12 | histone deacetylase, subtype 1 (HDAC1) (Homo sapiens, UniProt Q13547) | % | 5 |
| O=C(CCCCCCC(=O)Nc1ccccc1)NOC(=O)/C=C/c1ccccc1 | histone deacetylase, subtype 1 (HDAC1) (Homo sapiens, UniProt Q13547) | % | 45 |
| O=C(CCCCCCC(=O)Nc1ccccc1)NOC(=O)c1cccnc1 | histone deacetylase, subtype 1 (HDAC1) (Homo sapiens, UniProt Q13547) | % | 97 |
| COc1ccc(C(=O)ONC(=O)CCCCCCC(=O)Nc2ccccc2)cc1 | histone deacetylase, subtype 1 (HDAC1) (Homo sapiens, UniProt Q13547) | % | 65 |
| O=C(CCCCCCC(=O)Nc1ccccc1)NOC(=O)CCCc1ccccc1 | histone deacetylase, subtype 1 (HDAC1) (Homo sapiens, UniProt Q13547) | % | 62 |

For every item in the list below, what is its measured inhibition at 100 µM?
1. Cc1ccc(C(=O)ONC(=O)CCCCCCC(=O)Nc2ccccc2)cc1
2. COc1ccccc1C(=O)ONC(=O)CCCCCCC(=O)Nc1ccccc1
3. CC(C)(C)OC(=O)N[C@@H](Cc1ccccc1)C(=O)ONC(=O)CCCCCCC(=O)Nc1ccccc1
4. O=C(CCCCCCC(=O)Nc1ccccc1)NOC(=O)CCCCCCC(=O)Nc1ccccc1

1: 74; 2: 48; 3: 96; 4: 79

For every item in the list below, what is its measured inhibition at 100 µM?
1. O=C(CCCCCCC(=O)Nc1ccccc1)NOC(=O)c1ccc(-c2ccccc2)cc1
2. CCCCc1ccc(C(=O)ONC(=O)CCCCCCC(=O)Nc2ccccc2)cc1
3. O=C(CCCCCCC(=O)Nc1ccccc1)NOC(=O)CCc1ccccc1
4. COc1cccc(C(=O)ONC(=O)CCCCCCC(=O)Nc2ccccc2)c1
5. O=C(CCCCCCC(=O)Nc1ccccc1)NOC(=O)[C@H](Cc1ccccc1)NC(=O)OCc1ccccc1
6. O=C(CCCCCCC(=O)Nc1ccccc1)NOC(=O)c1ccc(Cl)cc1
7. O=C(CCCCCCC(=O)Nc1ccccc1)NOC(=O)[C@@H](Cc1ccccc1)NC(=O)OCc1ccccc1
8. O=C(CCCCCCC(=O)Nc1ccccc1)NOC(=O)c1ccc2ccccc2c1

1. 99
2. 50
3. 90
4. 43
5. 99
6. 36
7. 93
8. 22

For every item in the list below, what is its measured inhibition at 100 µM?
1. O=C(CCCCCCC(=O)Nc1ccccc1)NOC(=O)c1ccccc1
2. CC(=O)ONC(=O)CCCCCCC(=O)Nc1ccccc1

[60, 2]

---

Would you mind telling me the reported IC50 of each entry?
- Tested on: murine erythroleukemia cell line SC9
- assay.procedure: MTS assay (Cell Titer 96 Aqueous One Solution Cell Proliferation Assay)
- Assay type: cell-based
- experimental.context: Mus musculus; SC9 cells, 48 hours incubation; unit inferred
Give bare numbers, in nM.

// below: answered compounds
| molecule.smiles | IC50, nM |
| --- | --- |
| COc1ccccc1C(=O)ONC(=O)CCCCCCC(=O)Nc1ccccc1 | 592 |
| O=C(CCCCCCC(=O)Nc1ccccc1)NOC(=O)c1ccccc1 | 1200 |
| O=C(CCCCCCC(=O)Nc1ccccc1)NOC(=O)c1ccc(Cl)cc1 | 434 |
| O=C(CCCCCCC(=O)Nc1ccccc1)NOC(=O)[C@H](Cc1ccccc1)NC(=O)OCc1ccccc1 | 753 |
| COc1ccc(C(=O)ONC(=O)CCCCCCC(=O)Nc2ccccc2)cc1 | 748 |

For every item in the list below, what is its measured IC50?
1. O=C(CCCCCCC(=O)Nc1ccccc1)NOC(=O)[C@@H](Cc1ccccc1)NC(=O)OCc1ccccc1
2. COc1cccc(C(=O)ONC(=O)CCCCCCC(=O)Nc2ccccc2)c1

[443, 494]

For every item in the list below, what is its measured IC50?
1. CC(C)(C)OC(=O)N[C@@H](Cc1ccccc1)C(=O)ONC(=O)CCCCCCC(=O)Nc1ccccc1
2. O=C(CCCCCCC(=O)Nc1ccccc1)NOC(=O)CCc1ccccc1

446
491

---

- tgt: histone deacetylase, subtype 1 (HDAC1) (Homo sapiens)
- Construct: Flag; made in house
- assay.procedure: HDAC1-Flag assay (in vitro deacetylation assay)
- Assay type: biochemical
- experimental.context: 10 μM compound; read-out: HDAC1 % INH 10 μM
Would you mind telling me the reported inhibition at 10 µM of each entry?
Answers are plain numbers, in %.

| compound | tgt | units.label | inhibition at 10 µM |
| --- | --- | --- | --- |
| COc1cccc(C(=O)ONC(=O)CCCCCCC(=O)Nc2ccccc2)c1 [XII] | histone deacetylase, subtype 1 (HDAC1) (Homo sapiens) | % | 20 |
| O=C(CCCCCCC(=O)Nc1ccccc1)NOC(=O)c1ccccc1 [IX] | histone deacetylase, subtype 1 (HDAC1) (Homo sapiens) | % | 20 |
| O=C(CCCCCCC(=O)Nc1ccccc1)NOC(=O)c1cccnc1 [III] | histone deacetylase, subtype 1 (HDAC1) (Homo sapiens) | % | 87 |
| Cc1ccc(C(=O)ONC(=O)CCCCCCC(=O)Nc2ccccc2)cc1 [XIV] | histone deacetylase, subtype 1 (HDAC1) (Homo sapiens) | % | 38 |
| O=C(CCCCCCC(=O)Nc1ccccc1)NOC(=O)[C@@H](Cc1ccccc1)NC(=O)OCc1ccccc1 [XVIII] | histone deacetylase, subtype 1 (HDAC1) (Homo sapiens) | % | 78 |
| O=C(CCCCCCC(=O)Nc1ccccc1)NOC(=O)/C=C/c1ccccc1 [VII] | histone deacetylase, subtype 1 (HDAC1) (Homo sapiens) | % | 26 |

For every item in the list below, what is its measured inhibition at 10 µM?
1. O=C(CCCCCCC(=O)Nc1ccccc1)NOC(=O)CCc1ccccc1 [V]
2. O=C(CCCCCCC(=O)Nc1ccccc1)NOC(=O)c1cccc2ccccc12 [XI]

1. 64
2. 5
